# TARGET OR TEST SYSTEM: 抗HPV16E7蛋白单抗69A6
# MEASUREMENT PROTOCOL: indirect competition ELISA, peptide at 1μmol/L competes with coated HPV16E7 whole protein for 69A6
EXPERIMENTAL READOUT: 抑制率 (%)
Please respond with the number in % and leave the unit unwritten.

# annotated cases, reported 抑制率 shown
BINDER: LCVQSTHVDIRTLEDLLM [重叠肽HPV16E7 67-84]
抑制率 (%): 47.3

BINDER: HVDIRTLEDLLMGTLGIV [重叠肽HPV16E7 73-90]
抑制率 (%): 56.2

BINDER: RAHYNIVTFCCKCDSTLR [重叠肽HPV16E7 49-66]
抑制率 (%): 15.6

Kindly consider the entry below.
So what does the record say about 抑制率 for GTLGIVCPICSQKP [重叠肽HPV16E7 85-98] ?
48.6
